# System: SK-MEL-28
# Procedure Text: NCI tumour cell line growth inhibition, 48 h
Active and inactive are the calls of the source. No stated cut-off is given here; in the data, active = GI50 up to about 1.1 µM and inactive = higher.
Outcomes: class 1 for active, class 0 for inactive

molecule="N#CC(c1ccc(Cl)cc1)c1cccc(Cl)n1 (stereo unspecified)" category="class 0"
molecule="CC(=O)OCC1OC(NC(=S)CCSc2nc3ccccc3c(=O)n2-c2ccccc2)C(OC(C)=O)C(OC(C)=O)C1OC(C)=O (stereo unspecified)" category="class 0"
molecule="COc1cccc(N[C@@H]2c3cc4c(cc3C(c3cc(OC)c(O)c(OC)c3)[C@H]3C(=O)OCC32)OCO4)c1 (stereo partly specified)" category="class 0"
molecule=CCn1c(=O)c2c3ccc(O)cc3[nH]c2c2ccc(O)cc21 category="class 0"
molecule=Cc1ccc(Sc2ccccc2[N+](=O)[O-])cc1 category="class 0"
molecule=COc1nn(Cc2ccccc2F)c2ccc([N+](=O)[O-])cc12 category="class 0"
molecule=Nc1ncc(Cc2ccc3c(c2)OCO3)c(N)n1 category="class 0"
molecule=C/C(=C/C(=O)Nc1ccccc1)Nc1onc(C)c1C category="class 0"
molecule=Cc1ccccc1NC(=O)C(=O)CC(=O)c1ccc([N+](=O)[O-])cc1 category="class 0"
molecule=COc1cc(C(=O)C/C(CCC(=O)Nc2ccc(Cl)cc2Cl)=N/NC(=O)C(N)=O)ccc1O category="class 0"
molecule=CC1=CC[C@@]2(C)[C@@H]([C@@H]1C)[C@H]1CC[C@@H]3[C@@]4(C)CC[C@H](O)C(C)(C)[C@@H]4CC[C@@]3(C)[C@]1(C)C[C@@H]2O category="class 0"
molecule=COc1cc(OC)c(C(=O)c2cccs2)cc1N category="class 0"
molecule="O=C1CC(c2ccc(Cl)cc2)Oc2ccccc21 (stereo unspecified)" category="class 0"
molecule=O=C(N/C(=C\c1ccc([N+](=O)[O-])cc1)c1nc2cc(Cl)ccc2[nH]1)c1ccccc1 category="class 0"
molecule=CN(CCN)[C@H](CSSC[C@@H](c1ccccc1O)N(C)CCN)c1ccccc1O category="class 0"
molecule="N#CC1(C#N)NC(c2cccs2)C(C#N)(C#N)NC1c1cccs1 (stereo unspecified)" category="class 0"
molecule="C/C=C1/CN2CCC3(O)c4ccccc4N4C=C(C(=O)OC)C1CC2C43O (stereo unspecified)" category="class 0"
molecule=COc1cc(C=O)ccc1O category="class 0"
molecule="COc1cc(NS(C)(=O)=O)ccc1Nc1c2ccccc2nc2c1[nH]c1ccc(NC3OC(CO)C(O)C(O)C3O)cc12 (stereo unspecified)" category="class 1"
molecule=Cn1c(=O)n2n(c1=O)[C@@H](c1ccccc1)[C@H]2c1ccccc1 category="class 0"
molecule=CC1=C(C(=O)Nc2cccc3c2C(=O)NC3=O)CC(C(=O)Nc2cccc3c2C(=O)NC3=O)=C(C)N1 category="class 0"
